Numbers sourced from the Deep4Chem optical property database.

run_description: photoluminescence quantum yield (fraction); solvent given as SMILES
condition_description: in C1CCOC1
Some molecules, each annotated with its measured photoluminescence quantum yield.
measurement_type: photoluminescence quantum yield

Cc1cscc1-c1cc2c3cc(-c4cscc4C)c4nc(C(F)(F)C(F)(F)C(F)(F)F)nc5c(-c6cscc6C)cc(c6cc(-c7cscc7C)c7nc(C(F)(F)C(F)(F)C(F)(F)F)nc1c7c26)c3c45    0.33
CCCCCOc1ccc2c(c1)c1ccc3cccc4c5cccc6oc(=O)c2c(c65)c1c34    0.529
F[Si](c1ccccc1)(c1ccccc1)c1c2ccccc2cc2ccccc12    0.86
CCN1c2ccc(/C=N/Nc3ccccn3)cc2Sc2cc(-c3ccc(OC)cc3)ccc21    0.32
CCCCCN(c1ccccc1)c1ccc2c(c1)C(CC)(CC)c1cc(/C=C/c3ccc(/C=C(\C#N)C(=O)O)s3)ccc1-2    0.405
CCOC(=O)/C(C#N)=C/c1cc2c3ccccc3n(C)c2cc1OC    0.001

* * *

run_description: photoluminescence quantum yield (fraction); solvent given as SMILES
condition_description: in C1COCCO1
Grouping key: photoluminescence quantum yield. Bins: low bracket: < 0.04; middle bracket: ≥ 0.04 and < 0.5; high bracket: ≥ 0.5

CNc1ncc2nc(C#N)n(Cc3ccccc3)c2n1    high bracket
COC(=O)c1nc2c(N(C)C)nc(N(C)C)nc2n1Cc1ccccc1    high bracket
CC(=O)Nc1ccc(C2=C/C(=C\c3ccc([N+](=O)[O-])cc3)C(=O)O2)cc1    middle bracket
CCCCN(CCCC)c1ccc(/C=C/c2ccc3nc(/C=C/c4nc5ccc(/C=C/c6ccc(N(CCCC)CCCC)cc6)cc5n(CCC)c4=O)c(=O)n(CCC)c3c2)cc1    middle bracket
CN(C)c1ccc(/C=C/c2nc3ccc(N(C)C)cc3oc2=O)cc1    high bracket
O=P1(c2ccccc2)C(c2cc(C(F)(F)F)cc(C(F)(F)F)c2)=Cc2c3ccc4cccc5ccc(c6cc(-c7ccc(N(c8ccccc8)c8ccccc8)cc7)n1c26)c3c45 (stereo not given)    middle bracket
O=[N+]([O-])c1ccc(F)cc1C1CC(c2cccc3ccccc23)=NN1c1ccccc1 (stereo not given)    middle bracket
N#Cc1ccc(/C=C2\N=C(c3ccccc3)OC2=O)cc1    low bracket
COc1cc(N(c2ccccc2)c2ccccc2)ccc1C=C(C#N)C#N    low bracket
Cc1cc(=O)oc2c1cc(Br)c1occ(C)c12    low bracket
O=C1c2ccc3c4ccc5c6c(ccc(c7ccc(c2c37)C(=O)N1c1ccncc1)c64)C(=O)N(c1ccncc1)C5=O    high bracket
C(/C=C/c1cc2c3c(c1)CCCN3CCC2)=C\c1ccncc1    low bracket
COC(=O)c1ccc(/C=C2\C=C(c3ccc(C#N)cc3)N(CC(C)C)C2=O)cc1    middle bracket
CC1(C)CCc2c(c3ccccc3c3nc4c(nc23)c2c(c3ccccc34)OC(C)(C)CC2)O1    middle bracket

* * *

run_description: photoluminescence quantum yield (fraction); solvent given as SMILES
condition_description: in ClC(Cl)Cl
The following compounds are shown together with reported photoluminescence quantum yield values.
measurement_type: photoluminescence quantum yield

F[B-]1(F)OC(c2ccc(N3CCCC3)cc2)=Cc2cccc[n+]21    0.542
CC(=O)O[B-]1(OC(C)=O)OC(/C=C/c2ccc(C)cc2)=CC(/C=C/c2ccc(C)cc2)=[O+]1    0.63
CCCCCCC(CCCCCC)N1C(=O)c2cccc3c(-c4cc(OC)c(OC)c(OC)c4)ccc(c23)C1=O    0.65
CN(C)CCNCc1c2ccccc2cc2ccccc12    0.0315
CC1(C)[C@@H]2CC[C@]1(C)c1nc3cc(-c4cccs4)ccc3nc12    0.11
CN(C)c1ccc(/C=C2\CC/C(=C\c3ccc(C#N)cc3)C2=O)cc1    0.3
COc1ccc(C2=[N+]3C(=Nc4c(-c5ccccc5)c5c(n4[B-]3(F)F)-c3ccc(OC)cc3CC5)C(c3ccccc3)=C2)cc1    0.38
Cc1ccc(C(=O)NN2C3=C(CC4=C2CCCC4=O)C(=O)CCC3)cc1    0.77
COc1ccc(O[B-]2(Oc3ccc(OC)cc3)n3c(C)cc(C)c3C(c3ccc(I)cc3)=C3C(C)=CC(C)=[N+]32)cc1    0.004
N#Cc1ccc(C#Cc2ccccc2C#N)cc1    0.452
